target: methionyl-tRNA synthetase (Trypanosoma brucei brucei); experiment: inhibition of trypanosome methionyl-tRNA synthetase – biochemical, luminescence, dose response, late-stage follow-up (AID 686967); details: recombinant T. brucei MetRS, luminescence (ATP depletion)
pIC50: −log10 of the molar value.
Please note: YES applies when pIC50 is 6 or greater, and NO applies otherwise.

Below are worked cases with known answers.
# structure, cat
data = [
    ("COc1cccc(NC(=O)CSc2nnc3c(n2)[nH]c2ccc(C)cc23)c1", "YES"),
    ("O=C(N/C(=C\\c1cccnc1)c1nc2ccccc2[nH]1)c1cccc(Br)c1", "NO"),
    ("CCO[C@H]1OC(C(=O)NCc2nc3ccccc3[nH]2)=C[C@@H](c2ccc(Br)cc2)[C@@H]1CCCO", "NO"),
]

Let us examine a further case.
Problem: Is pIC50 for O=C(NCc1nc2ccccc2[nH]1)C1=C[C@H](c2ccc(Br)cc2)C[C@H](OCCCCO)O1 at or above 6?
Solution: NO
